test system: PPARg homodimer (NR concentration 180 nM); assay: PBM binding z-score (relative to random genomic background probes); higher = stronger binding; sequences stand for … in GC…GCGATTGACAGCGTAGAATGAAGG
Please enter class 1 where PBM binding z-score is greater than or equal to 0.8, and class 0 where it is lower.

Example results:
Primary sequence | Assigned label
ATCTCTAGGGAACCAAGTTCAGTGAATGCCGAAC | class 0
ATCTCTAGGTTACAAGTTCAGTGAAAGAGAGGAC | class 1
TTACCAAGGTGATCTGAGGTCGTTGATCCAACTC | class 1
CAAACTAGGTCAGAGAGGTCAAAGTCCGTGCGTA | class 1
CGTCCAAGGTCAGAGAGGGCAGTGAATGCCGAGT | class 1
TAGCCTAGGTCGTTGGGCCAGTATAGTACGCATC | class 0
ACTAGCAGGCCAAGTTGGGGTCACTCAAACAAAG | class 1
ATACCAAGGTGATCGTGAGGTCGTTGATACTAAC | class 1
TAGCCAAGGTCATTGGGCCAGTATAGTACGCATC | class 1
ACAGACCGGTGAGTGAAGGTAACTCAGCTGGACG | class 0

-- ask Given the entry `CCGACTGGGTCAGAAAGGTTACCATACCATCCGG` , answer whether its PBM binding z-score meets or surpasses 0.8.
-- reply class 1

---

system: PPARg:RXRa 270nM:90nM, anti-RXR (NR concentration 270 nM, RXRa partner concentration 90 nM); assay: PBM binding z-score (relative to random genomic background probes); higher = stronger binding; sequences stand for … in GC…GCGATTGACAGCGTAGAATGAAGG
Let's look at some sequences and their measured PBM binding z-score.
Just the number, please.

Worked cases, answers included:
Primary sequence | Val
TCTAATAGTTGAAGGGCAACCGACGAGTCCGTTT | 2.02
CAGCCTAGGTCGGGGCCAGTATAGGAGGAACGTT | -0.885
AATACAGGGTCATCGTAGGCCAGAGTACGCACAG | 6.09
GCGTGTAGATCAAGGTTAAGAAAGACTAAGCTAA | 0.373

For `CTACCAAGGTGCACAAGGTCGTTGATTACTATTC` the sequence record lists PBM binding z-score as 0.538

For `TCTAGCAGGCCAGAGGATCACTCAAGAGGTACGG` the sequence record lists PBM binding z-score as 1.2

For `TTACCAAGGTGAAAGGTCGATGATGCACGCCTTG` the sequence record lists PBM binding z-score as 7.54

For `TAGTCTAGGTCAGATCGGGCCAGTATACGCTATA` the sequence record lists PBM binding z-score as 2.4

For `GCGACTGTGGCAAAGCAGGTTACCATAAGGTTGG` the sequence record lists PBM binding z-score as -0.377

For `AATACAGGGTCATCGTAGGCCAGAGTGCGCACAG` the sequence record lists PBM binding z-score as 6.16

For `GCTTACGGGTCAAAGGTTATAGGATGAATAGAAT` the sequence record lists PBM binding z-score as 9.24

For `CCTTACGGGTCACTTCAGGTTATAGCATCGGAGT` the sequence record lists PBM binding z-score as 3.7

For `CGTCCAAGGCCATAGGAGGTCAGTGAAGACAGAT` the sequence record lists PBM binding z-score as 0.571

For `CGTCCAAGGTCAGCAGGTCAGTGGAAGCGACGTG` the sequence record lists PBM binding z-score as 4.15

For `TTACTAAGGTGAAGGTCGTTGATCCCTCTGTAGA` the sequence record lists PBM binding z-score as 6.91

---

Let's look at some sequences and their measured PBM binding z-score.
tested on: FXR:RXRa (NR concentration 270 nM, RXRa partner concentration 90 nM); test: PBM binding z-score (relative to random genomic background probes); higher = stronger binding; sequences stand for … in GC…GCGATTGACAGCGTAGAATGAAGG

Worked cases, answers included:
Primary sequence | PBM binding z-score
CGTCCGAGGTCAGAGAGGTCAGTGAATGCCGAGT | 6.42
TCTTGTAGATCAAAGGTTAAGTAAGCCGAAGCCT | 2.04
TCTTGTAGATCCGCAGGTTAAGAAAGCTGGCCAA | 0.144
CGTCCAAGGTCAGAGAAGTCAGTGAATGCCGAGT | 4.48

Turning now to a further sequence:
For `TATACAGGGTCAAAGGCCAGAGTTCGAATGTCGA` the sequence record lists PBM binding z-score as 7.08

---

Let's look at some sequences and their measured PBM binding z-score.
test system: FXR:RXRa (NR concentration 270 nM, RXRa partner concentration 90 nM); assay: PBM binding z-score (relative to random genomic background probes); higher = stronger binding; sequences stand for … in GC…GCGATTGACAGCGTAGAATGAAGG
Just the number, please.

Primary sequence | PBM binding z-score
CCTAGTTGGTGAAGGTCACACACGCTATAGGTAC | 2.89
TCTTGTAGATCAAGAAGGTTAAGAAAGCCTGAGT | 0.542
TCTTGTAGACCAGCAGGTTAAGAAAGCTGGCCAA | 0.124
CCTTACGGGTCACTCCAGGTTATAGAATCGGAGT | 5.18
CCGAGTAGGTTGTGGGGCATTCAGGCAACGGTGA | -0.145
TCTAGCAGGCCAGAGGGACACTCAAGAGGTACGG | -0.341

For `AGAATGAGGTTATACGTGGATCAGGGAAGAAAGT` the sequence record lists PBM binding z-score as 2.49

For `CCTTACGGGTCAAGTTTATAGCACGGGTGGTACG` the sequence record lists PBM binding z-score as 6.15

For `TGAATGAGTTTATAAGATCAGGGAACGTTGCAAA` the sequence record lists PBM binding z-score as -0.262

For `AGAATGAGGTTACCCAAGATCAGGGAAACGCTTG` the sequence record lists PBM binding z-score as 1.63

For `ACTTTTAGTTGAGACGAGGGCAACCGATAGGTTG` the sequence record lists PBM binding z-score as 0.762

For `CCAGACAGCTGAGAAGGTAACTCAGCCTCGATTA` the sequence record lists PBM binding z-score as -0.225

---

system: THRa:RXRa (NR concentration 90 nM, RXRa partner concentration 90 nM); assay: PBM binding z-score (relative to random genomic background probes); higher = stronger binding; sequences stand for … in GC…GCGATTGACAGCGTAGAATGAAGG
Please enter Fulfilled where PBM binding z-score is greater than or equal to 2, and Not fulfilled where it is lower.

Example results:
Primary sequence | Assigned label
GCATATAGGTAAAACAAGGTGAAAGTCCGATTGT | Fulfilled
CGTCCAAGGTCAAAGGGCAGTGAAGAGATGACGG | Fulfilled
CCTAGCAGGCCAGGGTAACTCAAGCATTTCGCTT | Not fulfilled
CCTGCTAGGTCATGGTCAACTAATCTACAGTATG | Fulfilled
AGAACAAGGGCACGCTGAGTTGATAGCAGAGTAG | Not fulfilled

-- ask Given the entry `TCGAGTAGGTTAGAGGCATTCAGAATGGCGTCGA` , answer whether its PBM binding z-score meets or surpasses 2.
-- reply Not fulfilled

-- ask Given the entry `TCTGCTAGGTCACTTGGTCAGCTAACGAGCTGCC` , answer whether its PBM binding z-score meets or surpasses 2.
-- reply Fulfilled

-- ask Given the entry `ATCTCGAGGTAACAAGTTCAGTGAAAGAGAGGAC` , answer whether its PBM binding z-score meets or surpasses 2.
-- reply Fulfilled

-- ask Given the entry `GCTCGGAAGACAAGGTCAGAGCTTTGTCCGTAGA` , answer whether its PBM binding z-score meets or surpasses 2.
-- reply Fulfilled

-- ask Given the entry `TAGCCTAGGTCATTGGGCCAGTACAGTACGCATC` , answer whether its PBM binding z-score meets or surpasses 2.
-- reply Fulfilled

---

system: RARg homodimer (NR concentration 270 nM); assay: PBM binding z-score (relative to random genomic background probes); higher = stronger binding; sequences stand for … in GC…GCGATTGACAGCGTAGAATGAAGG
Endpoint: PBM binding z-score
Just the number, please.

Worked cases, answers included:
Primary sequence | Endpoint | Val
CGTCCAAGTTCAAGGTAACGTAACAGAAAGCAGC | PBM binding z-score | 3.21
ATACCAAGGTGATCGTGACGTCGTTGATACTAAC | PBM binding z-score | 0.417
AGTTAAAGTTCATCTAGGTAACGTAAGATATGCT | PBM binding z-score | 5.65
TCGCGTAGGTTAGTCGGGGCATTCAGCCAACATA | PBM binding z-score | -0.112

// sequence `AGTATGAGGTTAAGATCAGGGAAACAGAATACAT` , assay RARg homodimer (NR concentration 270 nM), PBM binding z-score value: 1.66

// sequence `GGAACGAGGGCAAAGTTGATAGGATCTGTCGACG` , assay RARg homodimer (NR concentration 270 nM), PBM binding z-score value: 1.89

// sequence `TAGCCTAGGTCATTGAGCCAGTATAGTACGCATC` , assay RARg homodimer (NR concentration 270 nM), PBM binding z-score value: 4.06

// sequence `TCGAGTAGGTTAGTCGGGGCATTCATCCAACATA` , assay RARg homodimer (NR concentration 270 nM), PBM binding z-score value: 0.214

// sequence `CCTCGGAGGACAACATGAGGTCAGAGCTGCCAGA` , assay RARg homodimer (NR concentration 270 nM), PBM binding z-score value: 3.52

// sequence `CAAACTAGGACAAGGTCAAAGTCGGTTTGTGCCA` , assay RARg homodimer (NR concentration 270 nM), PBM binding z-score value: 3.68

// sequence `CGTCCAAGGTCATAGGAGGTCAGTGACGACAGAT` , assay RARg homodimer (NR concentration 270 nM), PBM binding z-score value: 7.27

// sequence `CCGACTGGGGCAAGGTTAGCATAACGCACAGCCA` , assay RARg homodimer (NR concentration 270 nM), PBM binding z-score value: 0.814
